System: SNB-19 CNS
Test: NCI-60 one-dose screen, 48 h
Conditions: 10 µM unless noted
This is part of a sample that, as a whole, favours compounds with a hit. Of some 83,000 tested, about 20% had one in any assay. Activity calls are given as the source filed them. The calls were made as follows: active = growth percent below 10; inactive = the rest.
Outcome codes: 1 (yes) = active, 0 (no) = inactive

[[record]]
molecule = "COc1cc2c(cc1OC)-c1ccc3cc4c(cc3c1N(CCN(C)C)C2)OCO4"
assayed_target = "SNB-19 CNS"
group_label = "1 (yes)"

[[record]]
molecule = "O=C1/C(=C/c2ccc([N+](=O)[O-])cc2)COc2ccc(O)c(O)c21"
assayed_target = "SNB-19 CNS"
group_label = "0 (no)"

[[record]]
molecule = "COc1cc2oc3cc(C)oc(=O)c3c2cc1OC"
assayed_target = "SNB-19 CNS"
group_label = "0 (no)"

[[record]]
molecule = "O=C(O)CC1Sc2ccccc2NC1=O (stereo unspecified)"
assayed_target = "SNB-19 CNS"
group_label = "0 (no)"

[[record]]
molecule = "Cc1csc(NC(=O)c2sc3nc(-c4cccs4)ccc3c2N)n1"
assayed_target = "SNB-19 CNS"
group_label = "0 (no)"

[[record]]
molecule = "CN1CCC(=C2c3ccccc3C=Cc3ccccc32)CC1"
assayed_target = "SNB-19 CNS"
group_label = "0 (no)"

[[record]]
molecule = "C[C@@H]1C(=O)N(C[C@H](Cc2ccccc2)N(Cc2ccccc2)Cc2ccccc2)[C@]1(Cc1ccccc1)C(=O)OC(C)(C)C"
assayed_target = "SNB-19 CNS"
group_label = "0 (no)"

[[record]]
molecule = "O=C(Nc1cccc2[nH]c(C(F)(F)F)nc12)c1cc(Cl)ccc1Cl"
assayed_target = "SNB-19 CNS"
group_label = "0 (no)"

[[record]]
molecule = "CCn1c(Sc2nnc(NC(C)=O)s2)nc2c1c(=O)n(C)c(=O)n2C"
assayed_target = "SNB-19 CNS"
group_label = "0 (no)"

[[record]]
molecule = "CCCCNC(=O)NS(=O)(=O)c1ccc(N2N=C(c3ccc(C)cc3C)CC2c2ccc(N(C)C)cc2)cc1 (stereo unspecified)"
assayed_target = "SNB-19 CNS"
group_label = "0 (no)"

[[record]]
molecule = "O=C(NC(=S)Nc1ccc(-c2nc3ccccc3[nH]2)cc1)c1ccc2ccccc2c1"
assayed_target = "SNB-19 CNS"
group_label = "0 (no)"

[[record]]
molecule = "O=C(Nc1ccc(N2CCCCC2)c(Cl)c1)c1ccc(Br)o1"
assayed_target = "SNB-19 CNS"
group_label = "0 (no)"

[[record]]
molecule = "NC(N)=N/N=C(/c1ccccc1)c1ccccc1F"
assayed_target = "SNB-19 CNS"
group_label = "0 (no)"

[[record]]
molecule = "C=C(CNCCc1ccc(O)cc1)[C@@H]1CC[C@]2(COC3CCCCO3)CC[C@]3(C)[C@H](CC[C@@H]4[C@@]5(C)CCC(NCCO)C(C)(C)[C@@H]5CC[C@]43C)[C@@H]12 (stereo partly specified)"
assayed_target = "SNB-19 CNS"
group_label = "1 (yes)"

[[record]]
molecule = "CC1(C)N=C(N)N=C(N)N1c1cccc(CN)c1"
assayed_target = "SNB-19 CNS"
group_label = "0 (no)"

[[record]]
molecule = "CCc1cc(Cc2cc(CC)cc(C(C)(C)C)c2O)c(O)c(C(C)(C)C)c1"
assayed_target = "SNB-19 CNS"
group_label = "0 (no)"

[[record]]
molecule = "N#Cc1cnn2c(-c3ccc(Cl)cc3)nc(NCCc3ccccc3)nc12"
assayed_target = "SNB-19 CNS"
group_label = "0 (no)"

[[record]]
molecule = "Cn1cc(Nc2nccc(-c3ccc(N4CCCC4)c(C#N)c3)n2)cn1"
assayed_target = "SNB-19 CNS"
group_label = "0 (no)"

[[record]]
molecule = "N#Cc1cccc(-c2nc3ccccn3c2NCCN2CCOCC2)c1"
assayed_target = "SNB-19 CNS"
group_label = "0 (no)"

[[record]]
molecule = "CCNCCNc1cc(-c2ccc(Cl)cc2)c(C#N)c2nc3ccccc3n12"
assayed_target = "SNB-19 CNS"
group_label = "0 (no)"

[[record]]
molecule = "Nc1c(-c2nc3ccccc3c(=O)[nH]2)nnn1-c1ccc(Cl)cc1"
assayed_target = "SNB-19 CNS"
group_label = "0 (no)"

[[record]]
molecule = "NS(=O)(=O)c1cnccc1-n1ccc(=O)c(S(N)(=O)=O)c1"
assayed_target = "SNB-19 CNS"
group_label = "0 (no)"

[[record]]
molecule = "COc1cc(/C=C/C(=O)c2cccc(-n3cc(-c4ccccc4)[nH]c3=O)c2)cc(OC)c1OC"
assayed_target = "SNB-19 CNS"
group_label = "0 (no)"

[[record]]
molecule = "O=C(NCc1cn(Cc2cccc(Oc3ccccc3)c2)nn1)c1cccnc1NCc1ccc(Cl)cc1"
assayed_target = "SNB-19 CNS"
group_label = "0 (no)"

[[record]]
molecule = "C=C1C(=O)O[C@H]2[C@H]1CC/C(Cn1cc(CNCCc3c[nH]c4ccccc34)nn1)=C\\CC[C@@]1(C)O[C@@H]21"
assayed_target = "SNB-19 CNS"
group_label = "0 (no)"

[[record]]
molecule = "CS(=O)(=O)c1ccc(-c2[nH]c3ccc(F)cc3c2/C=N/NC(N)=S)cc1"
assayed_target = "SNB-19 CNS"
group_label = "0 (no)"

[[record]]
molecule = "COc1ccc(C2CC(c3ccccc3)=NN2c2nc(C)c(C(C)=O)s2)cc1 (stereo unspecified)"
assayed_target = "SNB-19 CNS"
group_label = "0 (no)"

[[record]]
molecule = "CNC(=O)NCC1OC(n2cnc3c(NC(=O)Nc4ccccc4)ncnc32)C2OC(C)(C)OC12 (stereo unspecified)"
assayed_target = "SNB-19 CNS"
group_label = "0 (no)"

[[record]]
molecule = "Cn1ncc2c(Nc3ccc(Br)cc3)nc(Nc3ccc(Br)cc3)nc21"
assayed_target = "SNB-19 CNS"
group_label = "0 (no)"

[[record]]
molecule = "N#Cc1c(NC(=O)c2ccccc2I)sc2c1CCCC2"
assayed_target = "SNB-19 CNS"
group_label = "0 (no)"

[[record]]
molecule = "Cc1c(C(=O)O)nnn1-c1nccs1"
assayed_target = "SNB-19 CNS"
group_label = "0 (no)"

[[record]]
molecule = "C[N+](C)(C)CCOC(OCC[N+](C)(C)C)(c1ccccc1)c1ccccc1"
assayed_target = "SNB-19 CNS"
group_label = "0 (no)"

[[record]]
molecule = "Clc1ccc(-c2cn(-c3ccccc3)c(-c3ccccc3)n2)cc1"
assayed_target = "SNB-19 CNS"
group_label = "0 (no)"

[[record]]
molecule = "COc1ccc(CN2C(=O)/C(=C\\c3cc(OC)c(OC)c(OC)c3)c3ccccc32)cc1"
assayed_target = "SNB-19 CNS"
group_label = "0 (no)"

[[record]]
molecule = "COC(=O)[C@]12CC[C@@H](C)[C@H](C)[C@@H]1C1=CC[C@@H]3[C@@]4(C)C(C=O)=C[C@@](C)(CO)C4=CC[C@@]3(C)[C@]1(C)CC2"
assayed_target = "SNB-19 CNS"
group_label = "0 (no)"

[[record]]
molecule = "COc1ccc(-c2nnc(SCC(=O)NC3=NN=C(c4ccccc4)CS3)o2)cc1"
assayed_target = "SNB-19 CNS"
group_label = "0 (no)"

[[record]]
molecule = "O=[N+]([O-])c1ccc2[nH]cc(-c3c4ccsc4cc4[nH]c5ccc([N+](=O)[O-])cc5c34)c2c1"
assayed_target = "SNB-19 CNS"
group_label = "0 (no)"

[[record]]
molecule = "CNC(=O)c1c(NC(=O)c2ccc(C(C)(C)C)cc2)sc2c1CCC(=O)C2"
assayed_target = "SNB-19 CNS"
group_label = "0 (no)"

[[record]]
molecule = "CC(=O)OCCc1ccccc1"
assayed_target = "SNB-19 CNS"
group_label = "0 (no)"

[[record]]
molecule = "Cc1nc(Nc2cccc(NC(=O)Nc3ccc(Cl)cc3)c2)c2ccccc2n1"
assayed_target = "SNB-19 CNS"
group_label = "0 (no)"

[[record]]
molecule = "CNC1(C#N)CCN(Cc2ccccc2)CC1"
assayed_target = "SNB-19 CNS"
group_label = "0 (no)"

